- study.system: BRD4 Bromodomain 2 (BRD4 BD2) (Homo sapiens, UniProt O60885)
- Construct: 333-460 were cloned, expressed, and purified to homogeneity
- experimental.details: AlphaScreen binding assay, BRD4 BD2
- setup.conditions: His-tagged BRD4 BD2 100 nM, biotinylated H4 (1-21) K5/8/12/16 tetra-acetylated peptide 100 nM, compounds listed under IC50 range headings
endpoint: IC50

smi | recorded.value
CCCOc1c(C2=CCN(C(=O)OC(C)(C)C)CC2)ccc2c1CC[C@H](C)N2C(C)=O | 0.05 to 0.5 µM
COC(=O)N1c2ccc(-c3cnn(CCS(C)(=O)=O)c3)c(OCCN(C)S(C)(=O)=O)c2CC[C@@H]1C | 0.05 to 0.5 µM
COC(=O)N1c2ccc(-c3cnn(C4CC4)c3)c(OCC(=O)N3CCC3)c2CC[C@@H]1C | 0.05 to 0.5 µM
COC(=O)N1c2ccc(-c3cnn(C4CCNCC4)c3)c(Oc3ccccc3C#N)c2CC[C@@H]1C | < 0.05 µM
